assay_system: Albumin (Bos taurus)
experiment_notes: bovine serum albumin binders on microarray, profiling panel, artefact control for SMM control protein annotation, biochemical, small-molecule microarray, Alexa647 label, 635/667 nm fluorescence (AID 1118);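 note: score merges 667 nm emission intensity and signal-to-noise per printed compound spot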
protocol_conditions: BSA-A647 binding, fluorescence 635 nm, higher = more signal
observed_property: composite z-score
Please give only the number in your answer, with no unit.

Field: example entries. Status: answers known.
[
  {
    "molecule": "COCCOC(=O)N1C(=O)[C@@]2(c3ccccc31)[C@H](c1ccc(O)cc1)N1[C@H](c3ccccc3)[C@H](c3ccccc3)OC(=O)[C@H]1[C@@H]2C(=O)N1CCc2cc(OC)c(OC)cc2C1",
    "composite z-score": -0.361
  },
  {
    "molecule": "N[C@@H](Cc1ccccc1)Cn1cc(-c2ccccc2)nn1",
    "composite z-score": 0.656
  },
  {
    "molecule": "CS(=O)(=O)CCOC(=O)C1=CC(c2ccc(CO)cc2)=CC(C2CC2)N(Cc2cc3c(cc2Br)OCO3)C=C1C(=O)OCCS(C)(=O)=O (stereo not drawn)",
    "composite z-score": 0.381
  },
  {
    "molecule": "O=C(O)[C@H]1C[C@H]2C(=O)NCC(=O)N2[C@H]1c1ccc(O)cc1",
    "composite z-score": 0.346
  },
  {
    "molecule": "CCOC(=O)C1=CCC(c2ccc(C#N)cc2)N(S(=O)(=O)c2ccc(C)cc2)C1 (stereo not drawn)",
    "composite z-score": 0.886
  },
  {
    "molecule": "O=c1cccc(CCc2ccccc2)o1",
    "composite z-score": -0.284
  }
]

Pending molecule:
Item "CC(C)NC(=O)[C@@H]1c2ccccc2C(=O)N(Cc2ccccc2Cl)[C@H]1c1ccc(CO)cc1" with Albumin (Bos taurus) - composite z-score? 0.07

---

experiment_notes: basal 3T3-L1 adipocyte mitochondrial potential changes, profiling panel, cell-based, JC-1 fluorescence, 3T3-L1 adipocytes, 24 h, 100 nL compound (AID 1168); note: test concentration not given here
protocol_conditions: JC-1 mitochondrial fluorescence, higher = more signal, called active from +8 up or from −8 down
Mark -1 for z-score values under -0.2, and 1 for everything at or above.

These recorded examples may help you get a feel for the data.
[
  {
    "molecule": "COc1cc2c(cc1O)C(C)N(Cc1cccc(OC(F)(F)F)c1)CC2 (stereo unspecified)",
    "assigned_label": -1
  },
  {
    "molecule": "C=CCNC(=O)[C@H]1[C@@H]2C(=O)O[C@@H](c3ccccc3)[C@@H](c3ccccc3)N2[C@@H](c2ccc(O)cc2)[C@]12C(=O)N(C(=O)OCCOC)c1ccc(C#CCCO)cc12",
    "assigned_label": 1
  },
  {
    "molecule": "COc1ccc(C#Cc2ccc3c(c2)[C@]2(C(=O)N3)[C@H](C(=O)NC[C@H](O)c3ccccc3)[C@H]3C(=O)O[C@H](c4ccccc4)[C@H](c4ccccc4)N3[C@@H]2c2ccc(OCCO)cc2)cc1",
    "assigned_label": 1
  },
  {
    "molecule": "CN1C(=O)C2C=CC(C(O)c3ccccn3)N(Nc3ccccc3)C2C1=O (stereo unspecified)",
    "assigned_label": -1
  },
  {
    "molecule": "NC(=O)NCC#Cc1ccc2c(c1)[C@]1(C(=O)N2)[C@H](C(=O)NC[C@H](O)c2ccccc2)[C@H]2C(=O)O[C@H](c3ccccc3)[C@H](c3ccccc3)N2[C@@H]1c1ccc(O)cc1",
    "assigned_label": -1
  }
]

Is the recorded value of z-score equal to or greater than -0.2 for this molecule? "C=C(C(=O)CC[C@H](OC(C)=O)c1ccc(OCCO)cc1)C(C)C" 1

Item: "C=C(COC)C(=O)CC[C@@H](OC(=O)c1cccnc1)c1ccc(CO)o1" -1

Item: "COC(=O)[C@@]1(Cc2ccccc2)[C@H]2c3cc(C(=O)N4CCCC4)n(C)c3C[C@H]2CN1C(=O)c1ccccc1" -1

Item: "CC(C)C(=C=CC[C@H](O)c1cccc(OCCO)c1)C[C@H](O)COCc1ccccc1" -1

Item: "O=C(NCc1ccccc1)[C@]1(CCS(=O)(=O)c2ccccc2)N=C(c2ccc(OCCCO)cc2)O[C@@H]1c1ccccc1" 1

Item: "C=C(CCCC)/C(=C/C[C@H](OC(C)=O)c1ccc(CO)o1)c1cnc2ccccc2c1" -1

Item: "COC(=O)C[C@H]1O[C@]2(C(=O)N(Cc3ccccc3)c3ccc(NC(C)=O)cc32)[C@@H](C)[C@@H]1[Si](C)(C)c1ccc(OC)cc1" 1

Item: "O=C1N(CCS(=O)(=O)c2ccccc2)c2ccccc2C[C@@]12COC(c1ccc(OCCCO)cc1)=N2" 1

Item: "CCCCC=C[C@@H](NC(=O)c1cccs1)c1ccccc1" 1

Item: "COCCOC(=O)N1C(=O)[C@@]2(c3cc(C#CCCO)ccc31)[C@H](C(=O)NC[C@H](O)c1ccccc1)[C@H]1C(=O)O[C@H](c3ccccc3)[C@H](c3ccccc3)N1[C@@H]2c1ccc(O)cc1" -1

Item: "CN(C)CCCCNC(=O)[C@H]1C[C@H]2C(=O)N[C@@H](Cc3ccccc3)C(=O)N2[C@H]1c1ccc(O)cc1" -1
